# Subject Of Test: UniProt P78352
# Sequence (P78352 with tags, fused parts or gaps): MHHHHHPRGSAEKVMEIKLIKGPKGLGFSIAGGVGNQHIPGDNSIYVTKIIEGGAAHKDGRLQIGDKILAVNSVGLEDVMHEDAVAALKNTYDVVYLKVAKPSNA
pKi: −log10 of the molar value. Peptide text beside a SMILES is read from it.

| Molecule | pKi |
| --- | --- |
| CC[C@H](C)[C@H](NC(=O)CCOCCOCCOCCOCCOCCOCCOCCOCCOCCOCCOCCOCCOCCC(=O)N[C@H](C(=O)N[C@@H](C)C(=O)N[C@H](C(=O)N[C@@H](C)C(=O)N[C@H](C(=O)O)C(C)C)[C@@H](C)O)[C@@H](C)CC)C(=O)N[C@@H](C)C(=O)N[C@H](C(=O)N[C@@H](C)C(=O)N[C@H](C(=O)O)C(C)C)[C@@H](C)O | 4.89 |
| CC(C)[C@H](NC(=O)[C@H](C)NC(=O)[C@@H](NC(=O)[C@@H](N)CCC(=O)O)[C@@H](C)O)C(=O)O | 4.66 |
| CC(C)[C@H](NC(=O)[C@H](CC(=O)O)NC(=O)[C@H](CO)NC(=O)[C@@H](N)CCC(=O)O)C(=O)O [ESDV (8), ESDV] (H-ESDV-OH; N-terminus and C-terminus assumed) | 4.55 |
| CC(C)[C@H](NC(=O)[C@H](C)NC(=O)[C@@H](NC(=O)[C@H](CCC(=O)O)NCCc1ccc(F)c(F)c1)C(C)O)C(=O)O (some centres unmarked) | 6.00 |
| CC[C@H](C)[C@H](NC(=O)CCOCCOCCOCCOCCOCCOCCOCCOCCOCCC(=O)N[C@H](C(=O)N[C@@H](CCC(=O)O)C(=O)N[C@@H](CO)C(=O)N[C@@H](CC(=O)O)C(=O)N[C@H](C(=O)O)C(C)C)[C@@H](C)CC)C(=O)N[C@@H](CCC(=O)O)C(=O)N[C@@H](CO)C(=O)N[C@@H](CC(=O)O)C(=O)N[C@H](C(=O)O)C(C)C | 5.59 |
| CN[C@@H](CCC(=O)O)C(=O)N[C@H](C(=O)N[C@@H](C)C(=O)N[C@H](C(=O)O)C(C)C)C(C)O (some centres unmarked) | 5.05 |
| CC[C@H](C)[C@H](NC(=O)CCOCCOCCOCCOCCOCCOCCOCCOCCOCCOCCOCCOCCOCCC(=O)N[C@H](C(=O)N[C@@H](CCC(=O)O)C(=O)N[C@@H](CO)C(=O)N[C@@H](CC(=O)O)C(=O)N[C@H](C(=O)O)C(C)C)[C@@H](C)CC)C(=O)N[C@@H](CCC(=O)O)C(=O)N[C@@H](CO)C(=O)N[C@@H](CC(=O)O)C(=O)N[C@H](C(=O)O)C(C)C | 5.51 |
| CC(C)[C@H](NC(=O)[C@H](C)NC(=O)[C@@H](N)[C@@H](C)O)C(=O)O [TAV (49), TAV] (H-Thr-Ala-Val-OH; N-terminus and C-terminus assumed) | 4.43 |

The origin of these recorded values is patent US20160176924A1.
